Experiment: Pharmacokinetics in rats after intravenous infusion and oral gavage
Format: in vivo
Details: rat, in vivo
Listing: bioavailability of selected molecules

// solved cases for bioavailability follow
1. O=C(CS(=O)(=O)C(c1ccc(Cl)cc1)c1ccc(Cl)cc1)C(F)(F)F: ~100%
2. O=C(CF)CS(=O)(=O)C(c1ccc(Cl)cc1)c1ccc(Cl)cc1: < 10%

Here is the next item to consider.
Request: Need bioavailability of O=C(CS(=O)(=O)C(c1ccc(Cl)cc1)c1ccc(Cl)cc1)C(F)F , thanks.
Result: ~43%

* * *

Assay: Pharmacokinetics in rats after intravenous infusion and oral gavage
Assay type: in vivo
Conditions: rat, in vivo, iv, 1 mg/kg
reported property: clearance (mL/min/kg)
Kindly answer with a numeric value in mL/min/kg, unit omitted.

Request: For O=C(CS(=O)(=O)C(c1ccc(Cl)cc1)c1ccc(Cl)cc1)C(F)F , what is its reported clearance?
Result: 0.75

* * *

Biological target: MCP-1 receptor (300-19 cell membranes) (Homo sapiens)
Construct: host or cells: 300-19 cells (membrane preparation)
Sequence (P41597 whole entry): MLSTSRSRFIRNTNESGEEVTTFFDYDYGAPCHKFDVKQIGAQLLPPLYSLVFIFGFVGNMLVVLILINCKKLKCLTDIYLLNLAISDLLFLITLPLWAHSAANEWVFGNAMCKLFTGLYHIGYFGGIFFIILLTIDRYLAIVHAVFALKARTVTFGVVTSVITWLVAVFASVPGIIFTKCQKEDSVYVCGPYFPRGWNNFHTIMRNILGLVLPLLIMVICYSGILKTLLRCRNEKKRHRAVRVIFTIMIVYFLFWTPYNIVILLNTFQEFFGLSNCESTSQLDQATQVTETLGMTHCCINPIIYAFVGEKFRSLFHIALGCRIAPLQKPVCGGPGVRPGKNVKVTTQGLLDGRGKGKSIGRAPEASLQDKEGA
Experiment: Inhibition of binding of 125I-MCP-1 to 300-19 cell membranes
reported property: IC50 (nM)
Only the number, expressed in nM, is required.

1) COC(=O)CS(=O)(=O)C(c1ccc(Cl)cc1)c1ccc(Cl)cc1 [reference compound]: 7320
2) CC(=O)CS(=O)(=O)C(c1ccc(Cl)cc1)c1ccc(Cl)cc1 [Example 1]: 1150
3) O=S(=O)(CC(O)(O)C(F)(F)F)C(c1ccc(F)cc1)c1ccc(F)cc1 [Example 28]: 210
4) COCC(=O)CS(=O)(=O)C(c1ccc(Cl)cc1)c1ccc(Cl)cc1 [Example 14]: 1350

Continue with the next molecule.
Request: So what does the record say about IC50 for CCC(=O)CS(=O)(=O)C(c1ccc(Cl)cc1)c1ccc(Cl)cc1 [Example 2] ?
Result: 7370

* * *

Test: Pharmacokinetics in rats after intravenous infusion and oral gavage
Assay type: in vivo
Conditions: rat, in vivo
reported property: half-life (h)
# value in h; strip the unit string

1. O=C(CS(=O)(=O)C(c1ccc(Cl)cc1)c1ccc(Cl)cc1)C(F)F: 7

Now take the following compound into account.
Request: Any idea what its half-life is? The compound is O=C(CF)CS(=O)(=O)C(c1ccc(Cl)cc1)c1ccc(Cl)cc1
Result: 1.5
